- measurementProtocol: Comparative pharmacokinetics study in rats
- Assay type: in vivo, SD male rats
- conditionSummary: rat, intravenous injection 2 mg/kg
measurementName: Area Under a Curve (0-inf) (µM·h)

Here is how some compounds turned out for Area Under a Curve (0-inf).
[[record]]
compound = "CCCCOCCOc1ccc(-c2ccc(OC)c(/C=C/C(=O)Nc3ccc([S@@+]([O-])Cc4cncn4CCC)cc3)c2)cc1"
measurementname = "Area Under a Curve (0-inf)"
endpointvalue = 135.732

[[record]]
compound = "CCCCOCCOc1ccc(-c2ccc(OCC)c(/C=C/C(=O)Nc3ccc([S@+]([O-])Cc4c(C)ncn4CC)cc3)c2)cc1"
measurementname = "Area Under a Curve (0-inf)"
endpointvalue = 101.904

[[record]]
compound = "CCCCOCCOc1ccc(-c2ccc3c(c2)/C=C(/C(=O)Nc2ccc([S@@+]([O-])Cc4cncn4CCC)cc2)CCCN3CC(C)C)cc1 [(Cenicriviroc), Cenicriviroc, reference compound]"
measurementname = "Area Under a Curve (0-inf)"
endpointvalue = 31.344


a. CCCCOCCOc1ccc(-c2ccc(OC)c(/C=C/C(=O)Nc3ccc([S@+]([O-])Cc4c(C)ncn4CC)cc3)c2)cc1
b. CCCCOCCOc1ccc(-c2cc(F)c(OC)c(/C=C/C(=O)Nc3ccc([S@+]([O-])Cc4c(C)ncn4CC)cc3)c2)cc1
Ask: Field: lower recorded Area Under a Curve (0-inf) (choose a or b ) Write down the label of the entry you select.
Reply: b
